Provide the recorded CD8 EC50 (nM); CD69/CD25 on human T cells, plate-coated antibody for the entries that follow.
# test.system: human CD3 (human, UniProt P07766 23-207; P04234 22-171; P09693 23-182)
# Sequence (P07766 23-207, chain 1 of 3): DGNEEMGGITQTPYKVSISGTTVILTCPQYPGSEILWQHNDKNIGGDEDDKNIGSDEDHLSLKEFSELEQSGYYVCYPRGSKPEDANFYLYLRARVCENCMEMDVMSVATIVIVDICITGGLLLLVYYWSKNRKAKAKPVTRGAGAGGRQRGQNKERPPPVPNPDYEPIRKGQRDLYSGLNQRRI
# Sequence (P04234 22-171, chain 2 of 3): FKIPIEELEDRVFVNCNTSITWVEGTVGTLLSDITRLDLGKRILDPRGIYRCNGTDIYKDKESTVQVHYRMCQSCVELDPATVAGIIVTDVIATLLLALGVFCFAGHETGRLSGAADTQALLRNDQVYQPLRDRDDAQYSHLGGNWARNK
# Sequence (P09693 23-182, chain 3 of 3): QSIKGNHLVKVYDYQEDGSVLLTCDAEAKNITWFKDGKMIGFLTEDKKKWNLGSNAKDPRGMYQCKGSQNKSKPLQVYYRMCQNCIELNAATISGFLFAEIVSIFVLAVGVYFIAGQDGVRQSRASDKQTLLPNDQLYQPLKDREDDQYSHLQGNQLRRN
# assay.method.text: cell-based or functional assay
Give just the number in nM; leave the unit off.

Exercise: Please give the measured CD8 EC50 (nM); CD69/CD25 on human T cells, plate-coated antibody for this binder: mAb 133 (antibody, V domains shown) VH: EVQLVESGGGLVKTGGSLRLSCVASGFSFKKAWMSWVRQAPGKGLEWVGRIKRNTDGGTADYAAPVKGRFTLSRDDSKKTLFLQMNSLKTEDSAVYYCVTLDSSSYYVGYYYMDVWGKGTTVTVSS VL: DIQMTQSPSSVSASVGDRVSITCRASQDINNWLAWYQQKPGKAPKLLIYTASSLQSGVPSRFSGSGSGTDFTLTIGSLQPEDFATYYCQQAHSLPITFGQGTRLEIK
Key: 13.6

Exercise: Please give the measured CD8 EC50 (nM); CD69/CD25 on human T cells, plate-coated antibody for this binder: mAb 77 (antibody, V domains shown) VH: EVQLVESGGGLVQPGGSLRLSCAASGFTFSNYWMSWVRQAPGKGLEWVANIKQDGSEKYYVDSVRGRFTISRDNAKKSLYLQMNSLRAEDTAVYYCARDNSNYAYWYFDIWGRGTLVTVSS VL: DIQMTQSPSTLSVSVGDRVTITCRASQSIRKWLAWYQQKPGKAPKLLIFKASSLESGVPSRFSGSGSGTEFTLTISSLQPDDFATYYCQQYDTYSRTFGQGTKVEIK
Key: 13.1

Exercise: Please give the measured CD8 EC50 (nM); CD69/CD25 on human T cells, plate-coated antibody for this binder: mAb 94 (antibody, V domains shown) VH: QVHLVESGGGVVQPGRSLRLSCSASGFTFSGYGMHWVRQAPGKGLEWVALIYFDGRNKYYADSVKGRFTISRDNSKNTLYLQMNSLRAEDTAVYYCARGGGYNWFDPWGQGTLVTVSS VL: DIQMTQSPSSLSASVGDRVTITCRASQSISNYLNWYQQKPGKAPKLLIYLASSLQSGVPSRFSGSGSGTDFTLTINSLQPEDFASYYCQLSYSSPFTFGPGTKVDVN
Key: 12.4

Exercise: Please give the measured CD8 EC50 (nM); CD69/CD25 on human T cells, plate-coated antibody for this binder: mAb 129 (antibody, V domains shown) VH: EVQLVESGGDLVKTGGSLRLSCVASGFSFKKAWMNWVRQAPGKGLEWVGRIKRNTDGGATDYAAPVKDRFTLSRDDSKNTLYLQMNSLKTEDTAVYYCTTLDSSSWYVGYYYMDVWGKGTTVTVSS VL: DIHMTQSPSSVSASLGDRVTFTCRASQDINNWLAWYQQKPGKAPRLLIYTASSLQSGVPSRFSGSGSGTDFTLTISSLQPDDFATYYCQQAHSLPITFGQGTRLGIE
Key: 12.5

Exercise: Please give the measured CD8 EC50 (nM); CD69/CD25 on human T cells, plate-coated antibody for this binder: mAb 97 (antibody, V domains shown) VH: QGQLVESGGGVVQPGRSLRLSCAASGFTFRGYGMHWVRQAPGKGLEWVAIIYYDGKNKYYADSVKGRFTISRDNSKNTLYLQMNNLRVEDTAVYYCARGGGYNWFDPWGQGTLVTVSS VL: DIQMTQSPSSLSASIGDRVTITCRASQSISNYLNWYQQKPGKAPKLLIYSASSLQSGVPSRFSGSGSGTDFTLTISNLQPEDFAIYYCQRSYSPPFTFGPGTKLDIR
Key: 13.9

Data origin, for the record: patent US20230295310A1
